// values below are reported composite z-score
Assay notes: small-molecule binders of probe aNOTCH3, primary screen, biochemical, small-molecule microarray, 635/667 nm fluorescence (AID 1120);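 also: probe is a biotin-tagged antibody raised against NOTCH3 rather than NOTCH3 protein; score merges spot fluorescence near 667 nm with spot signal to noise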
Test conditions: higher = more signal

Study these solved cases before continuing.
[
  {
    "Chemical smiles": "Cc1ccc2[nH]c3nc(CCCn4ccnc4-c4ccccc4)nnc3c2c1",
    "composite z-score": 0.079
  },
  {
    "Chemical smiles": "CC(CCC(=O)OC[C@H]1O[C@H](C#Cc2ccccc2)C=C[C@@H]1Oc1ccc(C)cc1)=NO[C@@H](C)c1cc(-c2c(C)cc(C)cc2C)no1",
    "composite z-score": -0.272
  }
]

Now turn to the next molecule.
Input C[C@H]1CC[C@H]2C(=O)O[C@H](CO)CN2[C@@H]1c1ccc(Br)cc1 . Output composite z-score: 0.0081

---

Assay notes: S. cerevisiae RM11-1a growth modifiers, primary screen, strain RM11-1a, OD600, basal, 24 h (AID 1177);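 also: cultures grown under basal conditions with no added stressor; test concentration not given here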
Test conditions: OD600, 24 h, higher = more signal, called active from +8 up or from −8 down
The source made the active and inactive calls.
# z-score listing for each entry below

Some molecules with recorded z-score:
[
  {
    "Molecule": "COC(=O)[C@H](C)NC(=O)CCC1CC(OC(=O)NCc2ccc3c(c2)OCO3)CC2(CCCC(COC(=O)NCCC(C)C)O2)O1 (stereo partly drawn)",
    "Parameter measured": "z-score",
    "Assay value": "-0.774 (inactive)"
  },
  {
    "Molecule": "O=C1[C@H]2CCn3c(=O)n(-c4ccccc4)c(=O)n3[C@H]2[C@H](O)[C@@H]2O[C@H]12",
    "Parameter measured": "z-score",
    "Assay value": "-0.303 (inactive)"
  },
  {
    "Molecule": "C[C@H]1CC[C@@H](C(=O)O)N[C@@H]1c1cccc(N2CCCC2=O)c1",
    "Parameter measured": "z-score",
    "Assay value": "0.765 (inactive)"
  },
  {
    "Molecule": "COC(=O)CC=C[C@@H](C)[C@@H](C=NOC[C@@H](O)COCc1ccco1)NS(=O)(=O)c1ccc(C)cc1",
    "Parameter measured": "z-score",
    "Assay value": "0.186 (inactive)"
  },
  {
    "Molecule": "Cc1ccc2[nH]c3nc(CCCn4ccnc4-c4ccccc4)nnc3c2c1",
    "Parameter measured": "z-score",
    "Assay value": "-0.212 (inactive)"
  },
  {
    "Molecule": "CC(C)[C@@H](OCc1ccccc1)[C@H](C)C=NO[C@@H](C)c1cn([C@H](CO)Cc2ccccc2)nn1",
    "Parameter measured": "z-score",
    "Assay value": "-0.0022 (inactive)"
  },
  {
    "Molecule": "C=CC[C@@H]1C=C[C@H](ON=C(C)CCN2CCCCc3nc(C)c(C)cc32)[C@@H](CO)O1",
    "Parameter measured": "z-score",
    "Assay value": "0.334 (inactive)"
  },
  {
    "Molecule": "CCOC(=O)[C@H](CC(C)C)NC(=O)CCC1CC(OC(=O)NCCc2ccc(F)cc2)CC2(CCCC(COC(=O)NCc3cccc4ccccc34)O2)O1 (stereo partly drawn)",
    "Parameter measured": "z-score",
    "Assay value": "-0.186 (inactive)"
  },
  {
    "Molecule": "CC(C)=CCCC(C)=CCON=C1C[C@@H](O)[C@@H](O)[C@@H]2[C@@H]3C(=O)N(Cc4ccc5c(c4)OCO5)C(=O)[C@@H]3CC[C@H]12",
    "Parameter measured": "z-score",
    "Assay value": "1.01 (inactive)"
  },
  {
    "Molecule": "CC(C)=NOC[C@@H](O)[C@H]1O[C@@H]2OC(C)(C)O[C@@H]2[C@H]1O",
    "Parameter measured": "z-score",
    "Assay value": "0.0762 (inactive)"
  }
]

Kindly note the recorded z-score for CCOC(=O)[C@H](CC(C)C)NC(=O)CCC1CC(OC(=O)NCc2ccc3c(c2)OCO3)CC2(CCCC(COC(=O)NCCOc3ccccc3)O2)O1 (stereo partly drawn) , which is 1.21 (inactive)

Reported z-score of COc1cccc([C@H](O)Cn2cc(-c3ccc(CON=C(C)C)cc3)nn2)c1 : -0.47 (inactive)

Notebook: CC(C)CN1CCc2nc(-c3ccccc3)c3c(c2C1)CO[C@@H](C)C3 , z-score read as 0.697 (inactive)
